Tested on: K24384-001-R-PDC complex spheroid growth
Measurement description: Anticancer human tumor K24384-001-R-PDC patient-derived pancreatic adenocarcinoma cell line growth inhibition [AhR]
Condition parameters: second compound 1 µM; first compound 1 µM; hits give low values
Each record here notes measured viability, T/C.
Result type: viability, T/C

>  <Compound>
Nc1ccn(C2OC(CO)C(O)C2(F)F)c(=O)n1 (configuration not stated) + Cc1ccccc1N=Nc1ccc(NC(=O)c2ccnn2C)c(C)c1

>  <Result>
25.8%

$$$$
>  <Compound>
COc1cc(C2c3cc4c(cc3C(OC3OC5COC(C)OC5C(O)C3O)C3COC(=O)C23)OCO4)cc(OC)c1O (configuration not stated) + Cc1ccccc1N=Nc1ccc(NC(=O)c2ccnn2C)c(C)c1

>  <Result>
43.6%

$$$$
>  <Compound>
O=C(C=Cc1cccc(S(=O)(=O)Nc2ccccc2)c1)NO + Cc1cncc(-c2nc(NCCc3c[nH]c4ccccc34)c3ncn(C(C)C)c3n2)c1

>  <Result>
85.6%

$$$$
>  <Compound>
CC(C)c1c(-c2ccccc2)nc2c(C#N)c[nH]n2c1=O + Cc1cncc(-c2nc(NCCc3c[nH]c4ccccc34)c3ncn(C(C)C)c3n2)c1

>  <Result>
95.1%

$$$$
>  <Compound>
O=C(C=Cc1cccc(S(=O)(=O)Nc2ccccc2)c1)NO + Cc1ccccc1N=Nc1ccc(NC(=O)c2ccnn2C)c(C)c1

>  <Result>
87%

$$$$
>  <Compound>
CC1COCCN1c1cc(-c2ccnn2C)c2ccnc(-c3ccn[nH]3)c2n1 (configuration not stated) + CC(CO)NC(=O)c1cc(-c2ccc(Cl)cc2)nn(-c2cnn(C)c2)c1=O

>  <Result>
21.3%

$$$$
>  <Compound>
O=C(c1cc(Cc2n[nH]c(=O)c3ccccc23)ccc1F)N1CCN(C(=O)C2CC2)CC1 + Cc1cncc(-c2nc(NCCc3c[nH]c4ccccc34)c3ncn(C(C)C)c3n2)c1

>  <Result>
98.5%

$$$$
>  <Compound>
COc1cc(C2c3cc4c(cc3C(OC3OC5COC(C)OC5C(O)C3O)C3COC(=O)C23)OCO4)cc(OC)c1O (configuration not stated) + CC(CO)NC(=O)c1cc(-c2ccc(Cl)cc2)nn(-c2cnn(C)c2)c1=O

>  <Result>
52.7%

$$$$
>  <Compound>
CC(C)c1c(-c2ccccc2)nc2c(C#N)c[nH]n2c1=O + Cc1ccccc1N=Nc1ccc(NC(=O)c2ccnn2C)c(C)c1

>  <Result>
103%

$$$$
>  <Compound>
COc1ccc([C@@H](O)c2cc(-c3ncnc4cc(N5CCOCC5)ccc34)c(F)cc2Cl)nn1 + CC(CO)NC(=O)c1cc(-c2ccc(Cl)cc2)nn(-c2cnn(C)c2)c1=O

>  <Result>
66.3%

$$$$
>  <Compound>
COc1cccc2c1C(=O)c1c(O)c3c(c(O)c1C2=O)CC(O)(C(=O)CO)CC3OC1CC(N)C(O)C(C)O1 (configuration not stated) + CC(CO)NC(=O)c1cc(-c2ccc(Cl)cc2)nn(-c2cnn(C)c2)c1=O

>  <Result>
5.55%

$$$$
>  <Compound>
COc1cc(Nc2ncc3c(n2)-c2ccc(Cl)cc2C(c2c(F)cccc2OC)=NC3)ccc1C(=O)O + Cc1ccccc1N=Nc1ccc(NC(=O)c2ccnn2C)c(C)c1

>  <Result>
48.7%

$$$$

---

System: K24384-001-R-PDC complex spheroid growth
Measurement description: Anticancer human tumor K24384-001-R-PDC cell line growth inhibition [AhR];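 note: percent of DMSO vehicle-treated spheroid viability set as 100%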
Condition parameters: second compound 0.316 µM; first compound 0.1 µM; hits give low values
viability, T/C overview
Result type: viability, T/C (%)

>  <Compound>
CC1COCCN1c1cc(C2(S(C)(=N)=O)CC2)nc(-c2ccnc3[nH]ccc23)n1 (stereo not drawn) + Cc1cncc(-c2nc(NCCc3c[nH]c4ccccc34)c3ncn(C(C)C)c3n2)c1

>  <Measured number>
102

$$$$
>  <Compound>
NS(=O)(=O)OCC1CC(n2ccc3c(NC4CCc5ccccc54)ncnc32)CC1O (stereo not drawn) + Cc1ccccc1N=Nc1ccc(NC(=O)c2ccnn2C)c(C)c1

>  <Measured number>
115

$$$$
>  <Compound>
Nc1ccccc1NC(=O)c1ccc(CNC(=O)OCc2cccnc2)cc1 + Cc1cncc(-c2nc(NCCc3c[nH]c4ccccc34)c3ncn(C(C)C)c3n2)c1

>  <Measured number>
108

$$$$
>  <Compound>
Nc1ccn(C2OC(CO)C(O)C2(F)F)c(=O)n1 (stereo not drawn) + Cc1ccccc1N=Nc1ccc(NC(=O)c2ccnn2C)c(C)c1

>  <Measured number>
53.7

$$$$
>  <Compound>
Nc1ncn(C2CC(O)C(CO)O2)c(=O)n1 (stereo not drawn) + Cc1cncc(-c2nc(NCCc3c[nH]c4ccccc34)c3ncn(C(C)C)c3n2)c1

>  <Measured number>
77.7

$$$$
>  <Compound>
COc1cc(Nc2ncc3c(n2)-c2ccc(Cl)cc2C(c2c(F)cccc2OC)=NC3)ccc1C(=O)O + Cc1cncc(-c2nc(NCCc3c[nH]c4ccccc34)c3ncn(C(C)C)c3n2)c1

>  <Measured number>
66.4

$$$$
>  <Compound>
CC1COCCN1c1cc(-c2ccnn2C)c2ccnc(-c3ccn[nH]3)c2n1 (stereo not drawn) + Cc1cncc(-c2nc(NCCc3c[nH]c4ccccc34)c3ncn(C(C)C)c3n2)c1

>  <Measured number>
46.4

$$$$
>  <Compound>
CC1(C)CCC(CN2CCN(c3ccc(C(=O)NS(=O)(=O)c4ccc(NCC5CCOCC5)c([N+](=O)[O-])c4)c(Oc4cnc5[nH]ccc5c4)c3)CC2)=C(c2ccc(Cl)cc2)C1 + CC(CO)NC(=O)c1cc(-c2ccc(Cl)cc2)nn(-c2cnn(C)c2)c1=O

>  <Measured number>
124

$$$$
>  <Compound>
O=C(C=Cc1cccc(S(=O)(=O)Nc2ccccc2)c1)NO + Cc1ccccc1N=Nc1ccc(NC(=O)c2ccnn2C)c(C)c1

>  <Measured number>
144

$$$$
>  <Compound>
O=C(c1cc(Cc2n[nH]c(=O)c3ccccc23)ccc1F)N1CCN(C(=O)C2CC2)CC1 + Cc1ccccc1N=Nc1ccc(NC(=O)c2ccnn2C)c(C)c1

>  <Measured number>
97.2

$$$$
>  <Compound>
Nc1ncn(C2CC(O)C(CO)O2)c(=O)n1 (stereo not drawn) + Cc1ccccc1N=Nc1ccc(NC(=O)c2ccnn2C)c(C)c1

>  <Measured number>
103

$$$$
>  <Compound>
CC1(C)CCC(CN2CCN(c3ccc(C(=O)NS(=O)(=O)c4ccc(NCC5CCOCC5)c([N+](=O)[O-])c4)c(Oc4cnc5[nH]ccc5c4)c3)CC2)=C(c2ccc(Cl)cc2)C1 + Cc1ccccc1N=Nc1ccc(NC(=O)c2ccnn2C)c(C)c1

>  <Measured number>
112

$$$$
>  <Compound>
Nc1ccccc1NC(=O)c1ccc(CNC(=O)OCc2cccnc2)cc1 + Cc1ccccc1N=Nc1ccc(NC(=O)c2ccnn2C)c(C)c1

>  <Measured number>
104

$$$$
